Collected inhibition values appear next to each entry.
Target: Fatty-acid amide hydrolase 1 (Homo sapiens) (UniProt O00519)
Sequence (O00519 whole entry): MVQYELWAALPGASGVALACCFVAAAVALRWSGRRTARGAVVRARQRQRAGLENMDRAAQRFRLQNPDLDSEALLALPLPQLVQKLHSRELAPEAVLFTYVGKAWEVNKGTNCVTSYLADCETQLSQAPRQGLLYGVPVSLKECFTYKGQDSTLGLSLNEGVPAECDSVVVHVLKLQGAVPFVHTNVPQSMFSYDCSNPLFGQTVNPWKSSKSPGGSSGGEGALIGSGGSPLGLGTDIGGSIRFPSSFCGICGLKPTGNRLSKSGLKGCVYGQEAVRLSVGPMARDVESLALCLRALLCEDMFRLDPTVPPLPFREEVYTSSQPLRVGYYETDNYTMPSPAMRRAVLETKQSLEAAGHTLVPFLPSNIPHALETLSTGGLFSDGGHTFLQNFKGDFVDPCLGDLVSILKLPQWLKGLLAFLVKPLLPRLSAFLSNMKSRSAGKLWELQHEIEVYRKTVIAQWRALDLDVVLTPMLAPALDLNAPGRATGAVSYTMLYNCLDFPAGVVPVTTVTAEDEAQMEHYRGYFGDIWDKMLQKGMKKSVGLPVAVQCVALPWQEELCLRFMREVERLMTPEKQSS
Test: Inhibition of human recombinant FAAH using N-arachidonyl-7-amino-4-methylcoumarin as substrate preincubated at 10 uM for 20 mins before substrate addition by fluorescence assay

Please look up its inhibition: `CCCCCCCCCCCCCC(=O)CCCC(=O)NCc1ccc(Cl)cc1`
< 10%

----------
Target: Fatty-acid amide hydrolase 1 (Homo sapiens) (UniProt O00519)
Assay: Inhibition of human recombinant FAAH using N-arachidonyl-7-amino-4-methylcoumarin as substrate preincubated at 500 uM for 20 mins before substrate addition by fluorescence assay
Collected inhibition values appear next to each entry.
Reply with just the number (in %).

Consider the reported inhibition for these compounds:
CCCCCCCCCCCCCCCC(=O)NCc1cccc(OC)c1    70.1
CCCCC/C=C\C/C=C\CCCCCCCC(=O)NCc1ccccc1    82
CCCCCCCCCCCCCCCCCC(=O)NCc1ccccc1    26.2

# next compound below
Please look up its inhibition: `CCCCCCCCC/C=C/C=C/C(=O)CCCC(=O)NCc1ccccc1`
26.4
